Test system: Human alphaherpesvirus 2
Test: In vitro antiviral activity was tested against herpes simplex type 2 virus (HSV-2)
Type: functional
Conditions: read-out: ED50 (the source's name)
PROPERTY: EC50 (µM)
// return numeric value only (unit: µM, not printed)

Given the molecule Cc1cc2cncnc2n1[C@H]1C[C@H](O)[C@@H](CO)O1 and test system Human alphaherpesvirus 2, the measured EC50 is 74

====

Test system: Human respirovirus 3
Experiment: In vitro antiviral activity was tested against, parainfluenza type 3 (Para 3) virus
Format: functional
Conditions: read-out: ED50 (the source's name)
Binary call on EC50 with cut-off 500 µM: strictly below means YES, and equality or higher means NO.

The examples below pair each entry with its known result.
SMILES_CODE	ASSIGNED_LABEL
Nc1ncnc2c1cc(Cl)n2[C@H]1C[C@H](O)[C@@H](CO)O1	NO
CSc1nc(N)c2cc(Cl)n([C@H]3C[C@H](O)[C@@H](CO)O3)c2n1	YES
CSc1nc(N)c2cc(C)n([C@H]3C[C@H](O)[C@@H](CO)O3)c2n1	NO

For Cc1nc(N)c2ccn([C@H]3C[C@H](O)[C@@H](CO)O3)c2n1 , is the recorded EC50 below the cut-off of 500 µM?
NO

Criterion: EC50 strictly below 500 µM. Is it met by OC[C@H]1O[C@@H](n2ccc3cncnc32)C[C@@H]1O ?
NO

Confirm or reject: EC50 of Nc1ncnc2c1ccn2[C@H]1C[C@H](O)[C@@H](CO)O1 lies strictly below 500 µM
NO

====

Test: Toxic level was evaluated
Format: ADME
PROPERTY: Toxic level (mM)
Numeric only. Scale: mM

Example molecules with recorded Toxic level:
SMILES_CODE	PROPERTY	RECORDED_RESULT
OC[C@H]1O[C@@H](n2ccc3c(Cl)ncnc32)C[C@@H]1O	Toxic level	1.6
OC[C@H]1O[C@@H](n2ccc3cncnc32)C[C@@H]1O	Toxic level	5
Nc1ncnc2c1ccn2[C@H]1C[C@H](O)[C@@H](CO)O1	Toxic level	1.6
CSc1nc(N)c2cc(C)n([C@H]3C[C@H](O)[C@@H](CO)O3)c2n1	Toxic level	1.6

Kindly consider the entry below.
Measured Toxic level of Cc1nc(N)c2ccn([C@H]3C[C@H](O)[C@@H](CO)O3)c2n1 : 1.6

====

Tested on: Human respirovirus 3
Assay: In vitro antiviral activity was tested against, parainfluenza type 3 (Para 3) virus
Format: functional
Settings: read-out: ED50 (the source's name)
PROPERTY: EC50

Solved cases (3 shown):
SMILES_CODE	MEASURED_ON	RECORDED_RESULT
Nc1nc(Cl)nc2c1ncn2[C@H]1C[C@H](O)[C@@H](CO)O1	Human respirovirus 3	> 500 µM
Cc1nc(N)c2cc(Cl)n([C@H]3C[C@H](O)[C@@H](CO)O3)c2n1	Human respirovirus 3	> 1600 µM
CSc1ncc2cc(C)n([C@H]3C[C@H](O)[C@@H](CO)O3)c2n1	Human respirovirus 3	1100 µM

Then this compound:
// EC50 value for OC[C@H]1O[C@@H](n2ccc3c(S)ncnc32)C[C@@H]1O : > 5000 µM

====

System: Vaccinia virus
Test: In vitro antiviral activity was tested against, vaccinia virus (VV)
Format: functional
Conditions: Orthopoxvirus vaccinia; read-out: ED50 (the source's name)
Labelling field: enter Yes if recorded EC50 is less than 300 µM. Enter No if it equals or exceeds that cut-off.

COMPOUND	ASSIGNED_LABEL
Nc1nc(Cl)nc2c1ncn2[C@H]1C[C@H](O)[C@@H](CO)O1 [CLADRIBINE]	Yes

In the record for OC[C@H]1O[C@@H](n2ccc3c(S)ncnc32)C[C@@H]1O , is EC50 less than 300 µM?
No

A record lists Nc1ncnc2c1ccn2[C@H]1C[C@H](O)[C@@H](CO)O1 [2'-Deoxytubercidin] . Is its EC50 below 300 µM?
Yes

Does the reported EC50 of the following compound sit strictly below 300 µM? CSc1nc(N)c2cc(Cl)n([C@H]3C[C@H](O)[C@@H](CO)O3)c2n1
No

Here's an entry: Cc1nc(N)c2cc(Cl)n([C@H]3C[C@H](O)[C@@H](CO)O3)c2n1 . Is its EC50 below 300 µM?
No

Determine whether this compound shows EC50 lower than 300 µM (ties excluded): CSc1nc(N)c2cc(C)n([C@H]3C[C@H](O)[C@@H](CO)O3)c2n1
No

Item Nc1nc(Cl)nc2c1ccn2[C@H]1C[C@H](O)[C@@H](CO)O1 : EC50 beneath 300 µM, strictly?
No

For this compound, is EC50 lower than 300 µM? Cc1nc(N)c2ccn([C@H]3C[C@H](O)[C@@H](CO)O3)c2n1
No

Hello, is EC50 of the following compound strictly smaller than 300 µM? Nc1ncnc2c1cc(Cl)n2[C@H]1C[C@H](O)[C@@H](CO)O1
No
